The values you see were collected from the supplement of paper PMC10567573.

Assignment: determine reported protein stability index for the given variants.
B1: FAM46D (parent)
chain: LELKFVSSLRRQFEFSVDSFQIVL

# Variants of: B1
# measurement-description: protein stability index of a GFP-peptide fusion (GPS, HEK-293T) (PSI 1-6); higher = more stable;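 further: lentivirally expressed fusions sorted by FACS into six bins by GFP to DsRed ratio, PSI derived from sequencing read proportions per bin multiplied by bin number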
# protocol-conditions: c terminus: a fixed tail appended
One number for each entry.

Exercise: Find the recorded protein stability index belonging to V23F and report it.
Key: 1.98

Exercise: Find the recorded protein stability index belonging to E14Y and report it.
Key: 3.27

Exercise: Find the recorded protein stability index belonging to V23T and report it.
Key: 2.62

Exercise: Find the recorded protein stability index belonging to D18A and report it.
Key: 4.25

Exercise: Find the recorded protein stability index belonging to I22L and report it.
Key: 2.7

Provide reported protein stability index for each item, in the same order as listed.
1. E2I
2. F20K

Key:
1: 1.99; 2: 3.31
